- Tested on: Staphylococcus aureus
- TEST_SUMMARY: Antimicrobial activity against Staphylococcus aureus DSM 346 by serial dilution assay
- Type: functional
The source made the active and inactive calls. The calls are words filed in the database; no cut-off is given here.
ASSAY_READOUT: MIC

The following compounds have reported results that may help.
| COMPOUND_STRING | SUBJECT_OF_TEST | RESULT_VALUE |
| --- | --- | --- |
| O=C(O)/C=C/c1ccc(O)cc1 | Staphylococcus aureus | inactive |
| CC1=CC[C@H]([C@@](C)(O)[C@@H](O)C/C=C(\C)C(=O)O)CC1 | Staphylococcus aureus | inactive |
| C=C([C@H]1CC=C(C)CC1)[C@H](O)[C@@H](O)/C=C(\C)C(=O)O | Staphylococcus aureus | 100 mg/L |
| CC1=CC[C@H]([C@@](C)(O)[C@@H](O)[C@@H](O)/C=C(\C)C(=O)O)CC1 | Staphylococcus aureus | inactive |
| C=C1CCC[C@@](C)(C(=O)O)[C@@H]1CCc1ccoc1 | Staphylococcus aureus | inactive |

Given the compound C=C1CCCC(C)(C)[C@@H]1CC/C(=C/CO)CO , what is its reported MIC?
100 mg/L

Given the compound CN(C)[C@@H]1C(O)=C(C(N)=O)C(=O)[C@@]2(O)C(O)=C3C(=O)c4c(O)cccc4[C@@](C)(O)[C@H]3[C@H](O)[C@@H]12 , what is its reported MIC?
0.4 mg/L

Given the compound C=C1CCC[C@@](C)(CO)[C@@H]1CC/C(=C/CO)CO , what is its reported MIC?
inactive

The origin of these recorded values is ChEMBL document CHEMBL4316643.
